Data credit: PubChem BioAssay (NCATS)

- test_summary: qHTS drug screen for cell cycle checkpoint inhibitors in PARPi-resistant BRCA-mutant ovarian cancer cell lines. (AID 1963452)
- settings: PEO1/OlaR viability, CellTiter-Glo luminescence, 96 h; measured here: PEO1 parental Z-AUC; stronger effect = lower value
# key: entry, value: Z-AUC
measure_name: Z-AUC

> print(dat)
                                    compound  meas.value
 1  CNCCN(C)Cc1cn[nH]c1-c1ccc(OC2CC(OCCC3CCOCC3)C2)cc1 (stereo not given)          -1
 2  N#C/C(=C(/N)Sc1ccc(N)cc1)c1ccccc1C(F)(F)F      -0.277
 3  COc1cc(OC)cc(N(CCNC(C)C)c2ccc3ncc(-c4cnn(C)c4)nc3c2)c1     -0.0954
 4  Cn1cc(-c2cc(Oc3cc(F)c(NC(=O)C4(C(=O)Nc5ccccc5)CC4)cc3F)ccn2)cn1      -0.238
 5  O=C1NC(=O)/C(=C/c2ccc3nccc(-c4ccncc4)c3c2)S1       -1.47
 6  CN1CCN(Cc2ccc(Nc3ncc(Cl)c(Nc4ccccc4S(=O)(=O)N(C)C)n3)cc2)CC1       -1.68
 7  CC1CCC(n2c3cnccc3c3cnc(Nc4ccc5c(n4)CCN(C(=O)CO)C5)nc32)CC1 (stereo not given)        1.18
 8  O=c1c(-n2ccnn2)c[nH]n1-c1cc(N2CCOCC2)ncn1       0.854
 9  CNCc1ccc(C)c(NC(=O)c2ccc(Nc3nc(-c4ccccc4)c4ccccc4n3)cc2)c1      -0.199
10  C#Cc1cccc(Nc2ncnc3cc4c(cc23)OCCOCCOCCO4)c1       0.664

---

- test_summary: qHTS drug screen for cell cycle checkpoint inhibitors in PARPi-resistant BRCA-mutant ovarian cancer cell lines. (AID 1963452)
- settings: PEO1/OlaR viability, CellTiter-Glo luminescence, 96 h; measured here: PEO4 Z-AUC; stronger effect = lower value
# key: entry, value: Z-AUC

molecule	Z-AUC
CN1CCC(c2c(O)cc(O)c3c(=O)cc(-c4ccccc4Cl)oc23)C1CO (stereo not drawn)	-0.725
C=CC(=O)Nc1cccc(Nc2nc(Nc3ccc(Oc4ccnc(C(=O)NC)c4)cc3)ncc2F)c1	-0.427
C/C=C/CC(C)C(O)C1C(=O)NC(CC)C(=O)N(C)CC(=O)N(C)C(CC(C)C)C(=O)NC(C(C)C)C(=O)N(C)C(CC(C)C)C(=O)NC(C)C(=O)NC(C)C(=O)N(C)C(CC(C)C)C(=O)N(C)C(CC(C)C)C(=O)N(C)C(C(C)C)C(=O)N1C (stereo not drawn)	0.0499
COc1ccc(-c2cc(C(O)C3CCCCN3)c3ccccc3n2)cc1 (stereo not drawn)	-0.334
O=C(NOCCO)c1ccc2cncn2c1Nc1ccc(I)cc1F	0.455
CNC(=O)c1c(C)oc2cc(Oc3ncnc4cc(OC)c(OC)cc34)ccc12	-0.205
CCN(CCCOc1ccc2c(Nc3cc(CC(=O)Nc4cccc(F)c4)[nH]n3)ncnc2c1)CCOP(=O)(O)O	0.183
CC(C)C(N)C(=O)OCC(CO)OCn1cnc2c(=O)[nH]c(N)nc21 (stereo not drawn)	1.36
Cc1cc(CS(=O)(=O)c2ccccc2)cc(OCc2ccc(CN3CCC[C@@H]3CO)cc2)c1	0.0408
COc1cc([C@@H](CC(=O)O)c2ccc(C)c(CN3C[C@@H](C)Oc4ccccc4S3(=O)=O)c2)cc2nnn(C)c12	-0.282
C[C@@H]1N=C(N)NC(N(C)C)=N1	1.03
COc1cc(N2CCN(C(C)=O)CC2)ccc1Nc1ncc(Cl)c(Nc2ccc(N3CCN(C(C)=O)CC3)cc2OC)n1	0.132
COCc1c(-c2ccc(NC(=O)Nc3cc(C(F)(F)F)ccc3F)c(F)c2)c2c(N)ncnn2c1CN1CCOCC1	-1.61
C[C@@H]1CCNC(=O)c2cc3ccc(C(=O)Nc4nc5ccccc5n4CCCN(C)C)cc3n21	-1.11
CCCC[C@@H](C=O)NC(=O)[C@H](CC(C)C)NC(=O)OCc1ccccc1	0.856
O=c1c(-n2ccnn2)c[nH]n1-c1cc(N2CCOCC2)ncn1	1.55
CN1C/C=C/CCOc2cccc(c2)-c2ccnc(n2)Nc2cccc(c2)C1	-1.51
OCCn1cc(-c2ccc3c(c2)CC/C3=N\O)c(-c2ccncc2)n1	1.33

---

- test_summary: Quantitative high throughput screen for delayed death inhibitors of the malarial parasite plastid, 48 hour incubation (AID 488752); note: nearly all actives have a fitted effect of over 65% in size
- settings: Plasmodium falciparum growth; series mostly up to 28.7 µM
Records with an inconclusive call do not appear. Active and inactive are the calls of the source. The call rests on the fitted dose curve; in most records, active means well fitted inhibition curve with a large enough effect; inconclusive means small, poorly fitted or top-dose-only effect, or effect the other way; inactive means flat fitted curve, though single readings scatter.
Outcomes: true (active), false (inactive)

> print(dat)
                                    molecule  classification
 1           O=C(O)c1cc(=O)c2ccc(Cl)cc2[nH]1           false
 2  C/C=C1\C(=O)CC2C3CCC4=CC(=O)CC[C@]4(C)C3CC[C@]12C (stereo partly drawn)           false
 3  COc1ccccc1NC(=O)Nc1nc(-c2cccnc2)nc2ccccc12           false
 4  COc1cc2c(cc1C(F)(F)F)N(C(=O)Nc1cc(F)cc(-c3cccnc3)c1)CC2            true
 5  COC(=O)c1c(-c2cc(OC)c(OC)c(OC)c2)c2ccnc(OCc3ncccn3)c2c(=O)n1Cc1ccnc(C)c1            true
 6          O=C(OCCN1CCCCC1)c1c[nH]c2ccccc12           false
 7    CCCCCCCCCCCCC/C=C/[C@@H](O)[C@@H](N)CO           false
 8  C1CCC(N=C(NC23CC4CC(CC(C4)C2)C3)N2CCOCC2)CC1           false
 9                  Cn1cnc2c(NC3CCCC3)ncnc21           false
10       NCCCCCCNS(=O)(=O)c1cccc2c(Cl)cccc12           false
11  CCCn1c(=O)c2[nH]c(-c3ccc(OCC(=O)Nc4ccc(C#N)cc4)cc3)nc2n(CCC)c1=O           false
12               NCCNS(=O)(=O)c1cccc2cnccc12           false
13  COc1ccc2c(c1)c(CC(=O)N1CCOCC1)c(C)n2C(=O)c1ccc(Cl)cc1           false

---

- test_summary: Confirmatory screen GU Rhodamine qHTS for Zika virus inhibitors qHTS (AID 1347157); note: nearly all actives have a fitted effect of over 70% in size; note: potency is the fitted concentration of half-maximal effect
- settings: purified enzyme assay, Rhodamine110 substrate fluorescence, 15 min; series mostly up to 114 µM
Inconclusive results are not listed. Activity calls are given as the source filed them. Calls follow the shape of the dose curve; as a rule, active = well fitted inhibition curve with a large enough effect; inconclusive = small, poorly fitted or top-dose-only effect; inactive = flat fitted curve, though single readings scatter.
measure_name: Potency

> print(dat)
                                    compound        meas.value
 1  O=C(O)Cc1cc(I)c(Oc2cc(I)c(O)c(I)c2)c(I)c1          inactive
 2  Cc1ccc(-c2cc(C(F)(F)F)c(C#N)c(SCC(=O)O)n2)cc1  44.7 µM (active)
 3  O=C(COC(=O)c1cccc(NC(=O)c2ccc(Br)cc2)c1)c1ccc(Cl)cc1          inactive
 4  O=C(O)CCc1ccc(-c2ccc(Cl)cc2)n1-c1cccc(C(F)(F)F)c1  7.08 µM (active)
 5  COc1ccc(Nc2nnc(-c3ccc(C)c(S(=O)(=O)NCc4nc5ccccc5[nH]4)c3)c3ccccc23)cc1          inactive
 6  Cc1ccn(-c2cc(Cl)ccc2[C@@H](Oc2cc(-c3ccc(C[C@H](N)C(=O)O)cc3)nc(N)n2)C(F)(F)F)n1  22.1 µM (active)
 7  CC(C)c1ccc(NC(=O)c2ccc3c(O)c(S(=O)(=O)c4ccccc4)c(=O)[nH]c3c2)cc1  17.8 µM (active)
 8  O=C(COc1ccc(F)cc1)Nc1ccc(C(=O)OCc2cc(=O)n3nc(C4CC4)sc3n2)cc1          inactive
 9  Cc1cc(=O)c2c(O)c3c(O)cc(O)c4c5c(O)cc(O)c6c(O)c7c(=O)cc(C)c8c1c2c(c34)c(c65)c78          inactive
10  COc1ccc(C(=O)Nc2cccc(C(=O)OCc3cc(=O)n4c5c(sc4n3)CCCC5)c2)cc1          inactive
11  O=C(O)c1c(Br)c(Br)c(Br)c(Br)c1C1c2ccc(O)cc2Oc2cc(O)ccc21  12.6 µM (active)
12  CCOC(=O)c1ccc(Nc2nc3ccccc3nc2NS(=O)(=O)c2ccc(Cl)cc2)cc1  3.16 µM (active)
13  NC(Cc1cc(I)c(Oc2ccc(O)c(I)c2)c(I)c1)C(=O)O (configuration not stated)          inactive
14  Cc1c(Cl)cccc1NS(=O)(=O)c1ccc(NS(=O)(=O)c2ccc3c(c2)OCCO3)cc1  44.7 µM (active)
15  O=C(O)c1ccc(C2Nc3ccccc3-c3nnc(SCc4ccc(Cl)cc4)nc3O2)cc1 (configuration not stated)    20 µM (active)
16  O=c1oc2ccc3ccccc3c2cc1-c1nnc(Nc2cccc(C(F)(F)F)c2)s1          inactive
17  CC(C)(C)c1ccc(S(=O)(=O)Nc2ccc(O)c(Sc3nc4ccccc4s3)c2)cc1  35.5 µM (active)
18         O=C(O)c1nc2cc(Cl)c(Cl)cc2[nH]c1=O          inactive
19  CN(CC(=O)N(Cc1ccc(C2CCCCC2)cc1)c1ccc(C(=O)O)cc1)S(=O)(=O)c1c(F)c(F)c(F)c(F)c1F   3.5 µM (active)
20  Cc1cc(NC(=O)c2ccc(Cl)c(Cl)c2)ccc1-c1cc2ccccc2oc1=O  44.7 µM (active)
21  CC(=O)N1c2ccc(-c3ccc(C(=O)O)cc3)cc2C(Nc2ccc(Cl)cc2)CC1C (configuration not stated)  17.5 µM (active)
22  CCN(Cc1cccc(S(=O)(=O)O)c1)c1ccc(C(=C2C=CC(=[N+](CC)Cc3cccc(S(=O)(=O)O)c3)C=C2)c2ccccc2S(=O)(=O)[O-])cc1  3.55 µM (active)
23  Nc1c(N=Nc2ccc([N+](=O)[O-])cc2)c(S(=O)(=O)O)cc2cc(S(=O)(=O)O)c(/C=C/c3ccccc3)c(O)c12  3.16 µM (active)
24  CC(C)c1nn2c(=O)cc(COC(=O)c3ccc(NC(=O)c4cccs4)cc3)nc2s1          inactive
25  O=C(O)c1ccc(NC(=O)c2cn(-c3ccccc3)nc2-c2ccc(Br)cc2)cc1  8.91 µM (active)
26  CCCCc1nn2c(=O)cc(COC(=O)c3ccc(NC(=O)c4cccc(OC)c4)cc3)nc2s1          inactive
27  O=C(COC(=O)c1cccc(NC(=O)c2ccc(Br)cc2)c1)c1ccc(Br)cc1          inactive
28  O=C(CNc1nnc(-c2ccc([S+](=O)([O-])N3CCCC3)cc2)n1-c1ccccc1)Nc1ccc(C(=O)O)cc1          inactive
29  COc1ccc(NS(=O)(=O)c2ccc3c(c2)[C@H]2C=CC[C@H]2[C@@H](c2ccc(C(=O)O)cc2)N3)cc1    20 µM (active)
30  Cc1ccc(NC(=O)c2ccc3c(O)c(S(=O)(=O)c4ccc(Cl)cc4)c(=O)[nH]c3c2)cc1  22.4 µM (active)
31  O=C(OCC#CCSc1nnc(-c2cccc3ccccc23)o1)c1ccc(OC(F)(F)F)cc1          inactive
32  CN(Cc1ccc(C(=O)O)cc1)c1ccc(OCc2c(-c3c(Cl)cccc3Cl)noc2C2CC2)nc1C(F)(F)F  2.21 µM (active)
33  O=C(O)c1c(-c2ccccc2)oc2ccc(OCc3ccc(Cl)c(Cl)c3)cc12  17.8 µM (active)
34  O=c1oc2ccccc2cc1-c1nnc(Nc2ccc(Cl)cc2Cl)s1  31.6 µM (active)
35  O=c1oc2cc(O)ccc2cc1-c1nc(-c2ccc(Cl)c(Cl)c2)cs1  11.2 µM (active)
36  O=C(OCC#CCSc1nnc(-c2cccc3ccccc23)o1)c1cc(F)c(F)c(F)c1          inactive
37  COC(=O)c1c(NC(=O)c2cc3nc(-c4ccc(Br)cc4)cc(C(F)(F)F)n3n2)sc2c1CCCC2          inactive
